Value source: patent US20100311714A1

Target: PI3K delta (Homo sapiens, UniProt O00329)
Construct: for the full-length p110-d subunit are generated and fused by overlapping PCR; His tag (C); made in house; host or cells: baculovirus BV1060; Tn5 (Trichoplusia ni) or TiniPro insect cells
Sequence (O00329 with tags, fused parts or gaps limits assumed): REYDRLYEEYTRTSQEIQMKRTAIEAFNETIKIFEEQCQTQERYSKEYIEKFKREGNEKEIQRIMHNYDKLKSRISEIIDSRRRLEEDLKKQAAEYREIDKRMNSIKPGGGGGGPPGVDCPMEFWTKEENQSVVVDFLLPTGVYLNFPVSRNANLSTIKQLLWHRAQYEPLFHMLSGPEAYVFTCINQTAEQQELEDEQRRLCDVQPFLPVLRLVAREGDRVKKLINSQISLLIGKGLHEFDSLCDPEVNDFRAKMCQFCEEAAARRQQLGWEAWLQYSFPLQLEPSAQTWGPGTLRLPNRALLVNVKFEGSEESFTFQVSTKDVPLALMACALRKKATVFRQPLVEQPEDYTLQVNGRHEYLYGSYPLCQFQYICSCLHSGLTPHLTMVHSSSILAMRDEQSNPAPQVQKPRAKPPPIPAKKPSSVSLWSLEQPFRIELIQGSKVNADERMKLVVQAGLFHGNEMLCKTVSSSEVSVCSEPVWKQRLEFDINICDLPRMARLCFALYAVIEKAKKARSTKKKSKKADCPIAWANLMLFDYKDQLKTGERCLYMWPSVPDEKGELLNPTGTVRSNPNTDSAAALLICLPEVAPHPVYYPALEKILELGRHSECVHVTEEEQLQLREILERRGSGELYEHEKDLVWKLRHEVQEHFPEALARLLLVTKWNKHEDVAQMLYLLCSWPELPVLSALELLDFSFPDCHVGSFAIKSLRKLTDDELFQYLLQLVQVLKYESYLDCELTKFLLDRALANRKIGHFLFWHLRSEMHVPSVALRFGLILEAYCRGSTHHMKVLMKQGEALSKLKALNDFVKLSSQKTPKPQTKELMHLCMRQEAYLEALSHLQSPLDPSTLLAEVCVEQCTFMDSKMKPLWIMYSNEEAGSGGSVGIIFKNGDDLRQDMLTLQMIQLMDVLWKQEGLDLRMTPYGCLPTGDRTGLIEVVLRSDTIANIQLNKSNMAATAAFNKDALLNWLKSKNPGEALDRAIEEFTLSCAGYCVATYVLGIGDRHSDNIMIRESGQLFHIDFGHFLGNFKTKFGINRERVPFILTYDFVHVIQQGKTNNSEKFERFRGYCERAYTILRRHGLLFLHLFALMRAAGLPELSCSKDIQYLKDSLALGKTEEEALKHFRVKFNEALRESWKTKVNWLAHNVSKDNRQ
Experiment: PI3K delta kinase assay (Kinase-Glo luminescence)
Type: biochemical
Conditions: read-out: EPK_PI3Kdelta/IC50
Kindly state log10 IC50 for each of the entries shown.
Lab note - IC50 converted to log10 from values in nM.

Tell me the measured log10 IC50 of CCNc1cc(-c2ccc3ncc4c(c3c2)n(-c2ccc(OCCOC)nc2C)c(=O)n4C)cnc1C , please.
1.18

// returns reported log10 IC50 for input CCOc1ccc(-c2ccc3ncc4c(c3c2)n(-c2ccc(N3CCC(O)C3)nc2C)c(=O)n4C)cn1 (stereo not drawn)
2.29

For the compound shown here, CNc1ncc(-c2ccc3ncc4c(c3c2)n(-c2ccc(N(C)CCO)nc2C)c(=O)n4C)cn1 , give the reported log10 IC50.
1.94

Consider the compound shown here: COCCN(C)c1ccc(-n2c(=O)n(C)c3cnc4ccc(-c5cnc6c(ccn6C)c5)cc4c32)c(C)n1 What is its recorded log10 IC50?
1.32

What value of measured log10 IC50 is listed for CNc1ncc(-c2ccc3ncc4c(c3c2)n(-c2ccc(N3CC(O)C3)nc2C)c(=O)n4C)cc1F ?
1.36

Tell me the measured log10 IC50 of Cc1nc(C(C)(C)O)ccc1-n1c(=O)n(C)c2cnc3ccc(-c4cncc(OC(C)C)c4)cc3c21 , please.
1.15

Would you mind telling me what log10 IC50 value was observed for CNc1ncc(-c2ccc3ncc4c(c3c2)n(-c2ccc(C)nc2C)c(=O)n4C)cn1 ?
1.64

Given the compound COc1cc(-c2ccc3ncc4c(c3c2)n(-c2ccc(F)nc2C)c(=O)n4C)cnc1CO , what is its reported log10 IC50?
2.27

For COCc1ncc(-c2ccc3ncc4c(c3c2)n(-c2cccnc2C)c(=O)n4C)cc1OC , what is its reported log10 IC50?
1.72

I'd like to know its log10 IC50. The compound in question is COCc1ncc(-c2ccc3ncc4c(c3c2)n(-c2ccc(OC)nc2OC)c(=O)n4C)cc1OC
1.62

Quick check: log10 IC50 of COc1cc(-c2ccc3ncc4c(c3c2)n(-c2cccnc2C)c(=O)n4C)cnc1C(OC)OC ?
2.61

Fill in: log10 IC50 of CCOc1cc(-c2ccc3ncc4c(c3c2)n(-c2ccc(N3CCC3)nc2C)c(=O)n4C)cnc1COC is ___
1.40

Query (compound): COc1cc(-c2ccc3ncc4c(c3c2)n(-c2ccc(N3CC(F)(F)C(F)(F)C3)nc2C)c(=O)n4C)cnc1CO ; field requested: log10 IC50
1.00

// query log10 IC50 value for entry COc1ccc(-n2c(=O)n(C)c3cnc4ccc(-c5cnc(CO)c(OC)c5)cc4c32)c(OC)n1
2.49

Requested field: log10 IC50. Item: CCOc1ccc(-c2ccc3ncc4c(c3c2)n(-c2ccc(C)nc2C)c(=O)n4C)cn1
1.48
